Value source: patent US20100196385A1

Biological target: T1, full length human DLL4 (human, UniProt Q9NR61 27-685)
T1 construct: whole, on cells; also called native DLL4 expressed in HEK293 cells
T1 sequence (Q9NR61 27-685): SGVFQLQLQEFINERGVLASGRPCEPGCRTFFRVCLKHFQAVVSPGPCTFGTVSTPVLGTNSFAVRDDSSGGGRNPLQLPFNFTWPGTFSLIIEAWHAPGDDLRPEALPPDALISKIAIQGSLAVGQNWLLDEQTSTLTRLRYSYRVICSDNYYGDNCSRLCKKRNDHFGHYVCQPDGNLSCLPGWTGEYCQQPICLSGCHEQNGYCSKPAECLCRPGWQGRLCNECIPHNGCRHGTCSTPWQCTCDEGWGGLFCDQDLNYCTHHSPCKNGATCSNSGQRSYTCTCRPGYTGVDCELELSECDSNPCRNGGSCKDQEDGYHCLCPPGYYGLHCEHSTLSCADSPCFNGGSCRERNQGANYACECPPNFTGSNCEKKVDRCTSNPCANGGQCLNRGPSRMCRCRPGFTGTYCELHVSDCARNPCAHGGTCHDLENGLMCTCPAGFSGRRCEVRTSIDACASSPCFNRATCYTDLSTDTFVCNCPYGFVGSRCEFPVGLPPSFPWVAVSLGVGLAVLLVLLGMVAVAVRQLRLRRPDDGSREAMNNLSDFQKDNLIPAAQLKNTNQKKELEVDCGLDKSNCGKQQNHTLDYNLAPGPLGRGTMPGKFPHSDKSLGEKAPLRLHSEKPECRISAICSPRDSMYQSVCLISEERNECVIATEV
Experiment: FMAT, hybridoma supernatant, 293T cells with human DLL4
Quick reference: Count of the listed items.
Respond using a number only.

// solved cases for Count follow
1D4 (antibody, IgG4, V domains shown, Fully human XenoMouse antibody; also used where no isotype is printed) VH: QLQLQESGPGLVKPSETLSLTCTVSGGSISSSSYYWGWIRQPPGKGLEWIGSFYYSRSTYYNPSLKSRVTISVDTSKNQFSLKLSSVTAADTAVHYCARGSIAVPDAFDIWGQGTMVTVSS VL: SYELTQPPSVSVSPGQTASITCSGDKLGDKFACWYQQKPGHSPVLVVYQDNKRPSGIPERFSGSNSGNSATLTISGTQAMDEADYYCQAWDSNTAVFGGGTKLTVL
196
1E4 (antibody, IgG2, V domains shown, Fully human; also used where no isotype is printed) VH: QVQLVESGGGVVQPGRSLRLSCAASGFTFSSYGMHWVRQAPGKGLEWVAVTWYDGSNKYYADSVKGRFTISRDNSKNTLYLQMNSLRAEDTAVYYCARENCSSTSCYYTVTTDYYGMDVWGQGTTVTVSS VL: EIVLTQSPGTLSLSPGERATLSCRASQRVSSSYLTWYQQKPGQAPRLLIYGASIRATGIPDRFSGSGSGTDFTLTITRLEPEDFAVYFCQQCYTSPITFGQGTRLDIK
206
3A7 (antibody, IgG4, V domains shown, Fully human; also used where no isotype is printed) VH: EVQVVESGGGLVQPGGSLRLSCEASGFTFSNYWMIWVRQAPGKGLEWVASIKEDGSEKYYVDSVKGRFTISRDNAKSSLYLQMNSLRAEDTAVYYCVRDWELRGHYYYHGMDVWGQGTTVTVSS VL: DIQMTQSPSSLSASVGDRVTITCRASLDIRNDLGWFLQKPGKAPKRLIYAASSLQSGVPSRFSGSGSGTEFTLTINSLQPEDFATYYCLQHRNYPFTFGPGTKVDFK
166

Look up Count for this binder: 9G8 (antibody, IgG4, V domains shown, Fully human; used for IgG4 rows and where no isotype is printed; also called 9G8 IgG4) VH: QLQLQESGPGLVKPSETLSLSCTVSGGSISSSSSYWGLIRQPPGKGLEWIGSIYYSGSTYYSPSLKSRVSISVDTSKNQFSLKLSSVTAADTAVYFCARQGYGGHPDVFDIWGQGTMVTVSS VL: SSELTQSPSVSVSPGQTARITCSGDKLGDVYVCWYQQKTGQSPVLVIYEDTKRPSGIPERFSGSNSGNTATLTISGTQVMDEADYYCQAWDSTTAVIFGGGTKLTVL 198

Try 12A1 (antibody, IgG4, V domains shown, Fully human; also used where no isotype is printed) VH: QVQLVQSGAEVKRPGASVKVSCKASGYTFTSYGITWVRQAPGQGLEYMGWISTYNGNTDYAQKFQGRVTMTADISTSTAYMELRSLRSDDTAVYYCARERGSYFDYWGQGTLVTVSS VL: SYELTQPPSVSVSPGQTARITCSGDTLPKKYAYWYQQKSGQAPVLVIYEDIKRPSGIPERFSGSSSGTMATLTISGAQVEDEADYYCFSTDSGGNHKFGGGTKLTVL next. 179

Try 2H10 (antibody, IgG4, V domains shown, Fully human; used for IgG4 rows and where no isotype is printed; also called 2H10 IgG4) VH: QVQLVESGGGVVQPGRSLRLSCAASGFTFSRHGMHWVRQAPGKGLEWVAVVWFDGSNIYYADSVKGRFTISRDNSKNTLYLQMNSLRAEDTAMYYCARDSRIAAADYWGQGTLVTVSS VL: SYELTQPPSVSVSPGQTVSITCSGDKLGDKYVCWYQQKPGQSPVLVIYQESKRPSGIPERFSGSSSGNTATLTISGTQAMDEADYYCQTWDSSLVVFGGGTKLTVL next. 191

Try 17F3 (antibody, IgG2, V domains shown, Fully human; also used where no isotype is printed) VH: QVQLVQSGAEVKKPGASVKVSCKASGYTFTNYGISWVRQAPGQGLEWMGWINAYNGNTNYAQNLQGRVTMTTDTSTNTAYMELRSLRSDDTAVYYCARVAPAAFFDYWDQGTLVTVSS VL: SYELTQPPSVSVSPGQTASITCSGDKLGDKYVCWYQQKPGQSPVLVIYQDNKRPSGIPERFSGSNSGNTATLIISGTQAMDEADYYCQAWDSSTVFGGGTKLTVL next. 219

Try 4B3 (antibody, IgG4, V domains shown, Fully human; also used where no isotype is printed) VH: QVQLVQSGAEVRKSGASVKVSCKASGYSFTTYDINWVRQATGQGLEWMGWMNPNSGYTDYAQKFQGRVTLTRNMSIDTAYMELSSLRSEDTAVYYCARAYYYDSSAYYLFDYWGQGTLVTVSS VL: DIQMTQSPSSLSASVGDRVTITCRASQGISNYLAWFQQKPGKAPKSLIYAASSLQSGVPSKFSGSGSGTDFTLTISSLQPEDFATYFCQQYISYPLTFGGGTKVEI next. 206
